Consider molecules characterized by their IC50 with SARS-CoV-2 Main Protease (SARS-CoV-2) (UniProt P0DTD1).
Give bare numbers, in nM.

>  <molecule>
O=C(Cn1nnc2ccccc21)N(Cc1ccsc1)c1ccc(N2CCOCC2)cc1

>  <measured-property>
IC50

>  <assay-value>
11600

$$$$
>  <molecule>
O=C(Cc1cc(Cl)cc(Nc2ccc(N3CCOCC3=O)cc2)c1)Nc1cncc2ccccc12

>  <measured-property>
IC50

>  <assay-value>
1990

$$$$
>  <molecule>
O=C(Nc1cncc2ccccc12)C1CN(S(=O)(=O)C2CNC2)Cc2ccc(Cl)cc21 (stereo not given)

>  <measured-property>
IC50

>  <assay-value>
274

$$$$
>  <molecule>
O=C(Nc1cncc2c1CCCC2)[C@H]1CNS(=O)(=O)c2ccc(Cl)cc21 (stereo in doubt)

>  <measured-property>
IC50

>  <assay-value>
723

$$$$

Let us move to another entry and its IC50.
Task: Using the record for O=C(CN1CC(C(=O)Nc2cncc3ccccc23)c2cc(Cl)ccc2C1=O)NC1CCC1 (stereo not given) , report its IC50.
Result: 129

----------
measured-property: logD
Give bare numbers.

>  <molecule>
C[C@@H]1C[C@@H](C(=O)Nc2cncc3ccccc23)c2cc(Cl)ccc2O1 (stereo in doubt)

>  <logD>
3.4

$$$$

Give logD for each listed item.
1. O=C(Nc1cncc2ccncc12)[C@H]1CCOc2ccc(Cl)cc21 (stereo in doubt)
2. COc1ccc2cncc(NC(=O)[C@]3(OC)CCOc4ccc(Cl)cc43)c2c1 (stereo in doubt)

Result:
[2.6, 3.4]

----------
- run-parameters: rat; in vivo; iv; 0.5 mg/kg
measured-property: Vd (L/kg)
Answers are plain numbers, in L/kg.

Task: Using the record for O=C(Cc1cccc(Cl)c1)Nc1cncc2c(F)cccc12 , report its Vd.
Result: 1.02

----------
Consider compounds characterized by their pIC50 with SARS-CoV-2 Main Protease (SARS-CoV-2) (UniProt P0DTD1).
Give bare numbers, as −log10 of the molar value.

>  <compound>
CC(C)(C#N)CS(=O)(=O)N1Cc2ccc(Cl)cc2[C@@H](C(=O)Nc2cncc3ccccc23)C1 (stereo in doubt)

>  <pIC50>
4.88

$$$$
>  <compound>
COCCc1ccc(Cl)cc1CN1CCN(C(=O)CCl)CC1

>  <pIC50>
5.66

$$$$

Task: Using the record for Cc1ccc(C)c(S(=O)(=O)N2CCN(C(=O)CCl)CC2)c1 , report its pIC50.
Result: 4.85

----------
Provide the reported pIC50 of each item.
- tgt: SARS-CoV-2 Main Protease (SARS-CoV-2)
Numbers only, as −log10 of the molar value.

>  <compound>
CCOC(=O)N1Cc2ccc(Cl)cc2C(C(=O)Nc2cncc3ccccc23)C1 (centres undefined)

>  <pIC50>
6.63

$$$$

Task: Using the record for O=C(Cc1cncc2ccccc12)N1CCOc2ccc(Cl)cc21 , report its pIC50.
Result: 5.22

----------
Consider compounds characterized by their pIC50 with SARS-CoV-2 Main Protease (SARS-CoV-2) (UniProt P0DTD1).
Numbers only, as −log10 of the molar value.

Here are 2 compounds together with their reported answers.
>  <compound>
O=C(Cc1cc(Cl)cc(N(C(=O)c2ccccc2)C2CCNCC2)c1)Nc1cncc2ccccc12

>  <tgt>
SARS-CoV-2 Main Protease (SARS-CoV-2) (UniProt P0DTD1)

>  <assay-value>
5.67

$$$$
>  <compound>
CS(=O)(=O)N1CCN(C(=O)CCl)CC1c1ccccc1 (centres undefined)

>  <tgt>
SARS-CoV-2 Main Protease (SARS-CoV-2) (UniProt P0DTD1)

>  <assay-value>
4.97

$$$$

Let us move to another entry and its pIC50.
Task: Using the record for Cc1c(N)cncc1NC(=O)Cc1cccc(Cl)c1 , report its pIC50.
Result: 5.37
